Data provenance is the supplement of paper PMC10981050.

System: K562;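 also: after 48 h exposure read by CellTiter-Glo luminescence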
MEASUREMENT NOTES: cell viability relative to vehicle control; higher = less cytotoxic
MEASUREMENT PARAMETERS: 10 µM; SRSF2 genotype: SRSF2 wt/wt
Where a name gives a salt, the structure may show the parent alone.
I'd appreciate it if you marked entries 1 (yes) when cell viability is lower than 70% and 0 (no) when it is not.

CC(=O)O[C@]1(C(C)=O)CC[C@H]2[C@@H]3C=C(C)C4=CC(=O)CC[C@]4(C)[C@H]3CC[C@@]21C [Megestrol Acetate]
0 (no)
Nc1nc2n[nH]nc2c(=O)[nH]1 [Azaguanine-8]
0 (no)
CC1(C)S[C@@H]2[C@H](NC(=O)C(C(=O)O)c3ccccc3)C(=O)N2[C@H]1C(=O)O (stereo not given in full) [Carbenicillin disodium]
0 (no)
OC[C@H]1O[C@@H](n2cnc3c(O)nc(O)nc32)[C@H](O)[C@@H]1O [Xanthosine]
0 (no)
CN(C)[C@@H](CCOc1cccc2ccccc12)c1ccccc1 [Dapoxetine hydrochloride (Priligy)]
0 (no)

Dear colleague, could you confirm whether cell viability of C[C@H]1C[C@@H]2[C@H]([C@@H](O)C[C@@]3(C)[C@H]2CC[C@]3(O)C(=O)CO)[C@@]2(C)C=CC(=O)C=C12 [Methylprednisolone] falls below 70%? Thanks.
0 (no)

Consider the molecule COc1cc([C@@H]2c3cc4c(cc3[C@@H](O[C@@H]3O[C@@H]5CO[C@@H](c6cccs6)O[C@H]5[C@H](O)[C@H]3O)[C@H]3COC(=O)[C@H]23)OCO4)cc(OC)c1O [Teniposide (Vumon)] . Is its cell viability strictly less than 70%?
1 (yes)

Given C=CC(=O)N1CCC[C@@H](n2nc(-c3ccc(Oc4ccccc4)cc3)c3c(N)ncnc32)C1 , is recorded cell viability strictly lower than 70%?
1 (yes)

Is cell viability strictly under 70% for the entry COc1cc(N)c(Cl)cc1C(=O)NC1CCN(CCCOc2ccc(F)cc2)CC1OC (stereo not given) [Cisapride hydrate] ?
0 (no)

Find out if reported cell viability for Cc1cc(-c2ccc(/N=N/c3ccc4c(S(=O)(=O)O)cc(S(=O)(=O)O)c(N)c4c3O)c(C)c2)ccc1/N=N/c1ccc2c(S(=O)(=O)O)cc(S(=O)(=O)O)c(N)c2c1O [Evans Blue] is less than 70%
1 (yes)

Hello, I'm reviewing records and need to know if cell viability of C/C=C/c1ccc(OC)cc1 [Trans-Anethole] is below 70%. Could you check?
0 (no)

Answer whether the molecule O=C1NCCc2[nH]c(-c3ccncc3)cc21 has cell viability strictly less than 70%
1 (yes)

Is cell viability strictly under 70% for the entry CCCCCCCCCCCCCCCC(=O)OCC [Ethyl palmitate] ?
0 (no)

Is cell viability strictly under 70% for the entry Clc1ccc(COC(Cn2ccnc2)c2ccc(Cl)cc2Cl)c(Cl)c1 (stereo not given) [Miconazole nitrate] ?
1 (yes)

Lab note: confirm whether the reported cell viability for this molecule is below 70%, equality not counting. molecule: O=C(O)C(S)=Cc1c[nH]c2ccc(F)cc12
0 (no)

Determine if C=CC(=O)Nc1cccc(Sc2nc(Nc3ccc(N4CCN(C)CC4)cc3)ncc2Cl)c1 shows cell viability strictly lower than 70%.
1 (yes)

Please state whether cell viability is below 70% for Nc1ccn([C@@H]2O[C@H](CO)[C@@H](O)C2(F)F)c(=O)n1 [Gemcitabine (Gemzar)]
0 (no)

Here's an entry: C=C(C)C1CC=C(C)CC1 (single isomer, unassigned; (+)) [(+)-Dipentene] . Is its cell viability below 70%?
0 (no)

Consider COC1C(O)CC(=O)OC(C)CC=CC=CC(OC2CCC(N(C)C)C(C)O2)C(C)CC(CC=O)C1OC1OC(C)C(OC2CC(C)(O)C(O)C(C)O2)C(N(C)C)C1O (stereo not given) [spiramycin] . Does its cell viability lie strictly below 70%?
0 (no)
